Target: μ-receptor (Homo sapiens (Human), UniProt P35372)
Assay: Receptor binding, competitive displacement of [3H]DAMGO
Settings: 0.25 nM [3H]DAMGO, CHO cell membrane protein, 60 min at 25° C.
pKi: −log10 of the molar value. Where a name gives a salt, the structure may show the parent alone.
Assignment: determine reported pKi for the given compounds.

Incoming: Consider the compound shown here: COC1(c2ccnc(C(N)=O)c2)C2CCCC1CN(Cc1cccnc1)C2 (stereo not shown) [Compound 68, dihydrochloride] What is its recorded pKi?
Outgoing: 8.30 to 9.00

Incoming: Consider the compound shown here: COC1(c2ccc(F)c(C(N)=O)c2)C2CCCC1CN(C)C2 (stereo not shown) [Compound 41, hydrochloride] What is its recorded pKi?
Outgoing: < 8.30

Incoming: Consider the compound shown here: COC1(c2cccc(C(N)=O)c2)C2CCCC1CNC2 (stereo not shown) [Compound 35, hydrochloride] What is its recorded pKi?
Outgoing: > 9.00

Incoming: Consider the compound shown here: COC1(c2ccnc(C(N)=O)c2)C2CCCC1CN(Cc1cnco1)C2 (stereo not shown) [Compound 115, hydrochloride] What is its recorded pKi?
Outgoing: 8.30 to 9.00
